Hello, the source for this data is the supplement of paper PMC11061612, in case you need it.

Please respond with reported combination Emax for every item in the list.
- Test system: DG-75 (Burkitt's Lymphoma)
- assayDetails: combination Emax (second highest fraction inhibited in the dose matrix, 72 h); higher = more inhibition; extreme values may be limits of the assay
Give bare numbers.

// known answers, use as guide
# compound, measuredEndpoint, observed
rows = [
    ("CN(CCO)CC[C@H](CSc1ccccc1)Nc1ccc(S(=O)(=O)NC(=O)c2ccc(N3CCC([C@@H](O)c4ccccc4-c4ccc(Cl)cc4)CC3)cc2)cc1S(=O)(=O)C(F)(F)F [AZD4320] + CCN(CCO)CCCOc1ccc2c(Nc3cc(CC(=O)Nc4cccc(F)c4)[nH]n3)ncnc2c1 [AZD2811] (first compound max 1 µM, 7x7, partner max 1 µM)", "combination Emax", 0.196),
    ("NC1(C(=O)N[C@@H](CCO)c2ccc(Cl)cc2)CCN(c2ncnc3[nH]ccc23)CC1 [Capivasertib] + CC(C)n1c(=O)n(C)c2cnc3cc(F)c(-c4ccc(OCCCN5CCCCC5)nc4)cc3c21 [AZD1390] (first compound max 10 µM, 7x7, partner max 0.3 µM)", "combination Emax", 0.38),
]

# batch: return combination Emax for each of the 6 compounds below
1. CC1(C)CCC(CN2CCN(c3ccc(C(=O)NS(=O)(=O)c4ccc(NCC5CCOCC5)c([N+](=O)[O-])c4)c(Oc4cnc5[nH]ccc5c4)c3)CC2)=C(c2ccc(Cl)cc2)C1 [Venetoclax] + Cc1cc2ncnn2cc1Nc1ncc2c(n1)n(C1CCOCC1)c(=O)n2C [AZD7648] (first compound max 1 µM, 7x7, partner max 10 µM)
2. Cn1cnc2c(F)c(Nc3ccc(Br)cc3Cl)c(C(=O)NOCCO)cc21 [Selumetinib] + CC(C)n1c(=O)n(C)c2cnc3cc(F)c(-c4ccc(OCCCN5CCCCC5)nc4)cc3c21 [AZD1390] (first compound max 10 µM, 7x7, partner max 0.3 µM)
3. C=CCn1c(=O)c2cnc(Nc3ccc(N4CCN(C)CC4)cc3)nc2n1-c1cccc(C(C)(C)O)n1 [AZD1775] + C1CN(CCC1(C(=O)N[C@@H](CCO)C2=CC=C(C=C2)Cl)N)C3=NC=NC4=C3C=CN4 [Capivasertib] (first compound max 3 µM, partner max 3 µM)
4. COc1cccc(OCCCN)c1-c1cc(Nc2cnc(C#N)cn2)n[nH]1 [Prexasertib] + CCc1c2c(nc3ccc(O)cc13)-c1cc3c(c(=O)n1C2)COC(=O)[C@]3(O)CC [SN-38] (first compound max 1 µM, 7x7, partner max 0.3 µM)
5. COc1cc2ncnc(Nc3ccc(F)c(Cl)c3)c2cc1OCCCN1CCOCC1 [Gefitinib] + CC(C)n1c(=O)n(C)c2cnc3cc(F)c(-c4ccc(OCCCN5CCCCC5)nc4)cc3c21 [AZD1390] (first compound max 10 µM, 7x7, partner max 0.3 µM)
6. Cc1nc(Nc2ncc(C(=O)Nc3c(C)cccc3Cl)s2)cc(N2CCN(CCO)CC2)n1 [Dasatinib] + CC(=O)Nc1cccc(-n2c(=O)n(C3CC3)c(=O)c3c(Nc4ccc(I)cc4F)n(C)c(=O)c(C)c32)c1 [Trametinib] (first compound max 2 µM, 7x7, partner max 1 µM)

Outgoing:
0.317
0.277
0.922
0.957
0.373
0.316

# batch: return combination Emax for each of the 3 compounds below
1. Cc1cc2ncnn2cc1Nc1ncc2c(n1)n(C1CCOCC1)c(=O)n2C [AZD7648] + CCN(CCO)CCCOc1ccc2c(Nc3cc(CC(=O)Nc4cccc(F)c4)[nH]n3)ncnc2c1 [AZD2811] (first compound max 10 µM, 7x7, partner max 1 µM)
2. COc1nnc2ccc(N3CCC(c4ccc(OCCN5CCN(C)C(=O)[C@H]5C)cc4)CC3)nn12 [AZD5153] + Cn1cnc2c(F)c(Nc3ccc(Br)cc3Cl)c(C(=O)NOCCO)cc21 [Selumetinib] (first compound max 1 µM, 7x7, partner max 10 µM)
3. COc1nnc2ccc(N3CCC(c4ccc(OCCN5CCN(C)C(=O)[C@H]5C)cc4)CC3)nn12 [AZD5153] + CN(CC[C@H](CSC1=CC=CC=C1)NC2=C(C=C(C=C2)S(=O)(=O)NC(=O)C3=CC=C(C=C3)N4CCC(CC4)[C@H](C5=CC=CC=C5C6=CC=C(C=C6)Cl)O)S(=O)(=O)C(F)(F)F)CCO [AZD4320] (first compound max 1 µM, 7x7, partner max 1 µM)

Outgoing:
[0.475, 0.862, 0.881]

# batch: return combination Emax for each of the 2 compounds below
1. Cc1c2c(nn1C)CSCc1cc(n(C)n1)CSc1cc(c3ccccc3c1)OCCCc1c(C(=O)O)n(C)c3c-2c(Cl)ccc13 [AZD5991] + C=CCn1c(=O)c2cnc(Nc3ccc(N4CCN(C)CC4)cc3)nc2n1-c1cccc(C(C)(C)O)n1 [AZD1775] (first compound max 1 µM, partner max 1 µM)
2. CCN(CCO)CCCOc1ccc2c(Nc3cc(CC(=O)Nc4cccc(F)c4)[nH]n3)ncnc2c1 [AZD2811] + O=C(c1cc(Cc2n[nH]c(=O)c3ccccc23)ccc1F)N1CCN(C(=O)C2CC2)CC1 [Olaparib] (first compound max 1 µM, 7x7, partner max 10 µM)

Outgoing:
1: 0.92; 2: 0.307
